Source listed as PubChem BioAssay AID520.

- targetOrTestSystem: UniProtKB P25090
- Sequence (P25090 whole entry, looked up): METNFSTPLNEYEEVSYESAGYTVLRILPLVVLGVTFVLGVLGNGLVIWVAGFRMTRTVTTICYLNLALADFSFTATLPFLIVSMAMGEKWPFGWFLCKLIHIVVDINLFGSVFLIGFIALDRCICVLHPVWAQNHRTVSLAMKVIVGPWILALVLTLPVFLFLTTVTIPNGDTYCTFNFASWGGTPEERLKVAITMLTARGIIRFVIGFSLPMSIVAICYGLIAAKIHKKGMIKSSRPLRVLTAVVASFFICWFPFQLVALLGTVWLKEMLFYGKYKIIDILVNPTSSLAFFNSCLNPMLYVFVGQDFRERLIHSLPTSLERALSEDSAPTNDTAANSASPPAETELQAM
- assayInfo: concentration-dependent FPRL1 ligand displacement – cell-based, FPR counter-screen, fluorescent ligand, dose response (AID 520)
- testContext: FPRL1-expressing cells, fluorescent ligand binding inhibition
Activity calls are given as the source filed them. How the calls were made is not given here.
readout: IC50

In [3]: df
Out[3]:
                                   compound            assayvalue
0  CCOc1ccc(/C(O)=C2/C(=O)C(=O)N(CC3CCCO3)C2c2ccc(C)o2)cc1 (stereo not given)  > 66.7 µM (inactive)
1  C=CCOc1ccc(C2C(C(=O)c3ccco3)=C(O)C(=O)N2Cc2cccnc2)cc1 (stereo not given)  > 66.7 µM (inactive)
2  CCCOc1ccc(C2C(C(=O)c3ccco3)=C(O)C(=O)N2CCCn2ccnc2)cc1 (stereo not given)  > 66.7 µM (inactive)

Task: Would you mind telling me what IC50 value was observed for CCOc1cccc(/C(O)=C2/C(=O)C(=O)N(CCOC)C2c2ccc(C)o2)c1 (stereo not given) ?
Result: > 66.7 µM (inactive)

Task: If you can, please state the reported IC50 value of COCCCN1C(=O)C(O)=C(C(=O)c2ccco2)C1c1ccc(Br)cc1 (stereo not given) .
Result: > 66.7 µM (inactive)

Task: Would you mind telling me what IC50 value was observed for COc1cc(C2/C(=C(\O)c3ccc4c(c3)CC(C)O4)C(=O)C(=O)N2CCCn2ccnc2)ccc1O (stereo not given) ?
Result: > 66.7 µM (inactive)

Task: Quick one: IC50 for `CCN(CC)c1ccc(C=N/C(C#N)=C(\N)C#N)cc1` ?
Result: > 66.7 µM (inactive)
